src = patent US10844064B2

experimental system: soluble guanylate cyclase (sGC) (Homo sapiens, UniProt Q02108+Q02153)
Construct: endogenously expressing soluble guanylate cyclase (sGC); endogenous in cells; host or cells: HEK293
protocol summary: sGC-HEK-cGMP assay with LC/MS detection (Example 2A)
Format: cell-based
condition: HEK293 cells, 10 μM DETA-NONOate, 20 min; concentration eliciting 50% of high control response (30 μM Compound Y); read-out: Absolute EC50 (nM) - binned
observed property: EC50

Some solved entries appear below for comparison.
CC1(C)C(=O)Nc2nc(-c3cc(-c4ccon4)n(Cc4ccccc4F)n3)nc(NCCO)c21 [Compound I-6] ... 100 to 1000 nM
CC1(C)C(=O)Nc2nc(-c3cc(-c4ccon4)n(Cc4ccccc4F)n3)nc(NCC(O)(C(N)=O)C(F)(F)F)c21 (stereo not shown) [Compound I-8] ... 100 to 1000 nM
CC1(C(=O)NC2CC2)C(=O)Nc2nc(-c3ccn(Cc4ccccc4F)n3)nc(N)c21 (stereo not shown) [Compound I-14] ... > 1000 nM
CC1(C(=O)NCCO)C(=O)Nc2nc(-c3cc(-c4ccon4)n(Cc4ccccc4F)n3)nc(NCCO)c21 (stereo not shown) [Compound I-7] ... > 1000 nM
OCCn1nnc2cnc(-c3cc(-c4ccon4)n(Cc4ccccc4F)n3)nc21 [Compound I-2] ... > 1000 nM

// query EC50 value for entry CCOC(=O)C1(C)C(=O)Nc2nc(-c3ccn(Cc4ccccc4F)n3)nc(N)c21 (stereo not shown) [Compound I-13]
100 to 1000 nM

// query EC50 value for entry COC(=O)NS(=O)(=O)Nc1nc(-c2cc(-c3ccon3)n(Cc3ccccc3F)n2)nc2c1C(C)(C#N)C(=O)N2 (stereo not shown) [Compound I-5]
100 to 1000 nM

====

experimental system: sGC enzyme (Homo sapiens, UniProt Q02108+Q02153)
Construct: host or cells: HEK293 expressing GloSensor 40F cGMP
Sequence (Q02108 1-690): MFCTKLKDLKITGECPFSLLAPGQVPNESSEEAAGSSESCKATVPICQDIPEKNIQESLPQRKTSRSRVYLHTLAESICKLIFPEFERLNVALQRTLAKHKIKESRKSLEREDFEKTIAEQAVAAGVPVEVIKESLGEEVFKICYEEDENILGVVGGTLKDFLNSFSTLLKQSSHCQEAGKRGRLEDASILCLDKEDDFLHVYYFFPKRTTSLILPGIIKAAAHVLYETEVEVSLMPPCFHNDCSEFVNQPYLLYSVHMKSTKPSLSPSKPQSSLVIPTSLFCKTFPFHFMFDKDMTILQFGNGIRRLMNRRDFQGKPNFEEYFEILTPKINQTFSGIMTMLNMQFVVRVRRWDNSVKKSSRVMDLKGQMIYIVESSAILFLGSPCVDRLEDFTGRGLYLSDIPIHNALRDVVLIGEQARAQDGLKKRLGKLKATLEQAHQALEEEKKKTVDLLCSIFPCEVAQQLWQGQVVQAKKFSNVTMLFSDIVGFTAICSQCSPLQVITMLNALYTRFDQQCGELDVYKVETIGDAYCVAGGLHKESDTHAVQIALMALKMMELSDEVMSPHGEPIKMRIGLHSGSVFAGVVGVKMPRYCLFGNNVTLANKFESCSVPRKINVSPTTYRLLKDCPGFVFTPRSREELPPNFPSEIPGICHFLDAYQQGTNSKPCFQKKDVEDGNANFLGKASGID
Sequence (Q02153 1-619): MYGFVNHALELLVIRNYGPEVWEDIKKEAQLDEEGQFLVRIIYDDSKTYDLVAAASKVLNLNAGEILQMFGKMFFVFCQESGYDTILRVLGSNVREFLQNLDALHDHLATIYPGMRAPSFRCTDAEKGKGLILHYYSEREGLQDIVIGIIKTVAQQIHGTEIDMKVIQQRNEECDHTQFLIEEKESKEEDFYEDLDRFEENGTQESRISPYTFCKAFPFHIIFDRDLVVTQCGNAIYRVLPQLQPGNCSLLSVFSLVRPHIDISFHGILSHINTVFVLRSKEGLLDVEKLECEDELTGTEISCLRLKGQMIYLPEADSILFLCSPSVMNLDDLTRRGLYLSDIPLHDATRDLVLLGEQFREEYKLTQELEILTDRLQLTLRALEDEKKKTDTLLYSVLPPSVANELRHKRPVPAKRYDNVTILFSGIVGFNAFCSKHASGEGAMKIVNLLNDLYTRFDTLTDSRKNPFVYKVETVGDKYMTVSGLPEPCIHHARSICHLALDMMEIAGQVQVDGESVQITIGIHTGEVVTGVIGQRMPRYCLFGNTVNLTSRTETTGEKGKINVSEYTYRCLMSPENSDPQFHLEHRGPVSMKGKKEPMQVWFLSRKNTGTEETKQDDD
protocol summary: cGMP GloSensor cell-based assay, 384-well format (Example 2B)
condition: HEK293 GloSensor 40F cGMP cells, 10 μM DETA-NONOate; 50% of high control response (Compound Y); read-out: sGC_HEK_GloSensor EC50/IC50 Abs (Norm) (nM) Binned
observed property: EC50

Some solved entries appear below for comparison.
COc1cc(-c2ncc3c(n2)NC(=O)C3(C)C)nn1Cc1ccc(C(F)(F)F)c(F)c1 ... > 1000 nM
CC1(C)C(=O)Nc2nc(-c3cc(OC(F)F)n(Cc4ccccc4F)n3)nc(O)c21 ... 100 to 1000 nM
COc1cc(-c2ncc3c(n2)NC(=O)C3(C)C)nn1Cc1ccc(C(F)(F)F)cc1 ... > 1000 nM
COc1cc(-c2nc(O)c3c(n2)NC(=O)C3(C)C)nn1Cc1ccccc1F ... 100 to 1000 nM
CC1(C)C(=O)Nc2nc(-c3cc(C#N)n(Cc4ccccc4F)n3)ncc21 ... < 100 nM

// query EC50 value for entry CC1(C)C(=O)Nc2nc(-c3ccn(Cc4ccccc4F)n3)nc(N)c21
100 to 1000 nM
